test system: K98450-129-R-PDC multicell spheroids, viability; experiment: Anticancer human tumor K98450-129-R-PDC patient-derived colon adenocarcinoma cell line growth inhibition [PI3K]; settings: second compound 1 µM; first compound 1 µM; hits give low values
Catalogue of viability, T/C readings, one per entry.
ASSAY READOUT: viability, T/C (%)

COMPOUND | ASSAY READOUT | UNIT SYMBOL | RECORDED NUMBER
Cn1ncc(Cl)c1-c1cc(C(=O)NC(CN)Cc2cccc(F)c2)sc1Cl (stereo unspecified) + CC(Nc1ccc2c(c1)OCCn1cc(N3C(=O)OCC3C(F)F)nc1-2)C(N)=O | viability, T/C | % | 94.4
CNC(=O)c1ccc(N2C(=S)N(c3ccc(C#N)c(C(F)(F)F)c3)C(=O)C2(C)C)cc1F + Cc1nc(NC(=O)N2CCCC2C(N)=O)sc1-c1ccnc(C(C)(C)C(F)(F)F)c1 | viability, T/C | % | 91.4
CCCS(=O)(=O)Nc1ccc(F)c(C(=O)c2c[nH]c3ncc(-c4ccc(Cl)cc4)cc23)c1F + Cc1nc(NC(=O)N2CCCC2C(N)=O)sc1-c1ccnc(C(C)(C)C(F)(F)F)c1 | viability, T/C | % | 92.9
CC1(C)CCC(CN2CCN(c3ccc(C(=O)NS(=O)(=O)c4ccc(NCC5CCOCC5)c([N+](=O)[O-])c4)c(Oc4cnc5[nH]ccc5c4)c3)CC2)=C(c2ccc(Cl)cc2)C1 + CC(Nc1ncnc2nc[nH]c12)c1cc2cccc(Cl)c2c(=O)n1-c1ccccc1 | viability, T/C | % | 88.5
CC(Cn1ccc(-c2ccc(C#N)c(Cl)c2)n1)NC(=O)c1cc(C(C)O)[nH]n1 (stereo unspecified) + CC(Nc1ccc2c(c1)OCCn1cc(N3C(=O)OCC3C(F)F)nc1-2)C(N)=O | viability, T/C | % | 86.2
C=CC(=O)N1CCN(c2nc(=O)n(-c3c(C)ccnc3C(C)C)c3nc(-c4c(O)cccc4F)c(F)cc23)C(C)C1 (stereo unspecified) + CC(Nc1ccc2c(c1)OCCn1cc(N3C(=O)OCC3C(F)F)nc1-2)C(N)=O | viability, T/C | % | 67

----------
tested on: K98450-129-R-PDC multicell spheroids, viability; test: Anticancer human tumor K98450-129-R-PDC cell line growth inhibition [PI3K]; conditions: second compound 3.16 µM; first compound 0.1 µM; hits give low values;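 also: spheroids exposed to agents for seven days before read-out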
Lab note: cut-off is 90%. Strictly less in viability, T/C is Condition met. Exactly 90% or more is Condition not met.

MOLECULE | CAT
CC(Cn1ccc(-c2ccc(C#N)c(Cl)c2)n1)NC(=O)c1cc(C(C)O)[nH]n1 (stereo unspecified) + CC(Nc1ncnc2nc[nH]c12)c1cc2cccc(Cl)c2c(=O)n1-c1ccccc1 | Condition met
Cn1ncnc1[C@H]1c2n[nH]c(=O)c3cc(F)cc(c23)N[C@@H]1c1ccc(F)cc1 + Cc1nc(NC(=O)N2CCCC2C(N)=O)sc1-c1ccnc(C(C)(C)C(F)(F)F)c1 | Condition met
Cn1nccc1Nc1nccc(-c2ccn(C(CO)c3ccc(Cl)c(F)c3)c(=O)c2)n1 (stereo unspecified) + CC(Nc1ncnc2nc[nH]c12)c1cc2cccc(Cl)c2c(=O)n1-c1ccccc1 | Condition met
CC1(C)CCC(Nc2ncc(C(F)(F)F)c(-c3c[nH]c4c(P(C)(C)=O)c(C#N)ccc34)n2)CN1 (stereo unspecified) + Cc1nc(NC(=O)N2CCCC2C(N)=O)sc1-c1ccnc(C(C)(C)C(F)(F)F)c1 | Condition not met
CC(=O)c1c(C)c2cnc(Nc3ccc(N4CCNCC4)cn3)nc2n(C2CCCC2)c1=O + Cc1nc(NC(=O)N2CCCC2C(N)=O)sc1-c1ccnc(C(C)(C)C(F)(F)F)c1 | Condition met
CNC(=O)c1ccc(N2C(=S)N(c3ccc(C#N)c(C(F)(F)F)c3)C(=O)C2(C)C)cc1F + CC(Nc1ncnc2nc[nH]c12)c1cc2cccc(Cl)c2c(=O)n1-c1ccccc1 | Condition not met
CC1(C)CCC(Nc2ncc(C(F)(F)F)c(-c3c[nH]c4c(P(C)(C)=O)c(C#N)ccc34)n2)CN1 (stereo unspecified) + CC(Nc1ncnc2nc[nH]c12)c1cc2cccc(Cl)c2c(=O)n1-c1ccccc1 | Condition met
CC(C)n1nc(-c2ccc3oc(N)nc3c2)c2c(N)ncnc21 + Cc1nc(NC(=O)N2CCCC2C(N)=O)sc1-c1ccnc(C(C)(C)C(F)(F)F)c1 | Condition met
CC(C)n1nc(-c2ccc3oc(N)nc3c2)c2c(N)ncnc21 + CC(Nc1ncnc2nc[nH]c12)c1cc2cccc(Cl)c2c(=O)n1-c1ccccc1 | Condition met
C#Cc1c(F)ccc2cc(O)cc(-c3ncc4c(N5CC6CCC(C5)N6)nc(OCC56CCCN5CC(F)C6)nc4c3F)c12 (stereo unspecified) + Cc1nc(NC(=O)N2CCCC2C(N)=O)sc1-c1ccnc(C(C)(C)C(F)(F)F)c1 | Condition met
